src = ChEMBL document CHEMBL1135114

Hi there, I'd appreciate the recorded ED50 for every entry that follows.
tested on: Rattus norvegicus; test: Inhibition of serum TXB2 production in the rats after intravenous administration; assay type: functional
Give the quantity in mg/kg, number only.

Record O=C(O)/C=C/c1ccc(Cn2ccnc2)cc1 : what is its ED50 with Rattus norvegicus?
0.02

Record O=C(O)CCCC/C=C(/c1ccccc1)c1cccnc1 : what is its ED50 with Rattus norvegicus?
0.01

Record CCOC(=O)CCCC/[N+]([O-])=C(/c1cccnc1)c1cccc(COC(=O)N2CCc3c(sc4c3C(c3ccccc3Cl)=NC(C)c3nnc(C)n3-4)C2)c1 (stereo unspecified) : what is its ED50 with Rattus norvegicus?
0.1

Record CCOC(=O)CCCC/[N+]([O-])=C(/c1cccnc1)c1cccc(CN2CCc3c(sc4c3C(c3ccccc3Cl)=NC(C)c3nnc(C)n3-4)C2)c1 (stereo unspecified) : what is its ED50 with Rattus norvegicus?
0.1

Record CCOC(=O)CCCC/[N+]([O-])=C(/c1cccnc1)c1cccc(COC(=O)N2CCc3c(sc4c3C(c3ccccc3Cl)=NCc3nnc(C)n3-4)C2)c1 : what is its ED50 with Rattus norvegicus?
0.1

Record CCOC(=O)CCCC/[N+]([O-])=C(/c1cccnc1)c1cccc(CN2CCc3c(sc4c3C(c3ccccc3Cl)=NCc3nnc(C)n3-4)C2)c1 : what is its ED50 with Rattus norvegicus?
0.1

###

target: Thromboxane-A synthase (Homo sapiens, UniProt P24557); test: Thromboxane A2 synthase inhibitory activity was measured from inhibition of thromboxane B2 production in human platelet microsomes
Sequence (P24557 whole entry): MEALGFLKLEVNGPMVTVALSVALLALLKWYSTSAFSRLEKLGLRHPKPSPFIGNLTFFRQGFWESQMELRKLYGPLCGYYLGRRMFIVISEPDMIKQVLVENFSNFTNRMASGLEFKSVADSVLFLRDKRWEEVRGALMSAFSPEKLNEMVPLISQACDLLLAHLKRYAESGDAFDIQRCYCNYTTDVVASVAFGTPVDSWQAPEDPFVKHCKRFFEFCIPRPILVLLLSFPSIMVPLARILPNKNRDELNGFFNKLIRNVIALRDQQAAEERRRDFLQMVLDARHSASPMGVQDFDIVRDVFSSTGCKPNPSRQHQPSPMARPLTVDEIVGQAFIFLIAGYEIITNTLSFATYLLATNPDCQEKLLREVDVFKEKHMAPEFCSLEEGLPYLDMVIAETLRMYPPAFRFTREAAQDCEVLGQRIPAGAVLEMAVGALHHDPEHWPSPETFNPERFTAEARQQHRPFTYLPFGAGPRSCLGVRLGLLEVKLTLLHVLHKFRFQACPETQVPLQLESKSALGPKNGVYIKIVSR
readout type: IC50 (nM)
Give the quantity in nM, number only.

Record CCOC(=O)CCCC/[N+]([O-])=C(/c1cccnc1)c1cccc(COC(=O)N2CCc3c(sc4c3C(c3ccccc3Cl)=NCc3nnc(C)n3-4)C2)c1 : what is its IC50 with Thromboxane-A synthase (Homo sapiens, UniProt P24557)?
62

Record CCOC(=O)CCCC/[N+]([O-])=C(/c1cccnc1)c1cccc(CN2CCc3c(sc4c3C(c3ccccc3Cl)=NCc3nnc(C)n3-4)C2)c1 : what is its IC50 with Thromboxane-A synthase (Homo sapiens, UniProt P24557)?
67

Record CCOC(=O)CCCC/[N+]([O-])=C(/c1cccnc1)c1cccc(COC(=O)N2CCc3c(sc4c3C(c3ccccc3Cl)=NC(C)c3nnc(C)n3-4)C2)c1 (centres undefined) : what is its IC50 with Thromboxane-A synthase (Homo sapiens, UniProt P24557)?
69

Record CCOC(=O)CCCC/[N+]([O-])=C(/c1cccnc1)c1cccc(CN2CCc3c(sc4c3C(c3ccccc3Cl)=NC(C)c3nnc(C)n3-4)C2)c1 (centres undefined) : what is its IC50 with Thromboxane-A synthase (Homo sapiens, UniProt P24557)?
60
